Tested on: 435261-313-R-J1-PDC complex spheroid viability
Assay: Anticancer human tumor 435261-313-R-J1-PDC patient-derived colon adenocarcinoma cell line growth inhibition [GQUAD]
Settings: second compound 0.0316 µM; first compound 0.0316 µM; stronger effect = lower value
Lab note: anything with viability, T/C below 80% is marked class 1; values at 80% or higher are marked class 0.

Example entries and their recorded answers appear below.
>  <MOLECULE>
CC1COCCN1c1cc(-c2ccnn2C)c2ccnc(-c3ccn[nH]3)c2n1 (stereo not given) + CN(C)c1ccc(Nc2c3ccc(NC(=O)CCN4CCCC4)cc3nc3cc(NC(=O)CCN4CCCC4)ccc23)cc1

>  <EXPERIMENTAL SYSTEM>
435261-313-R-J1-PDC complex spheroid viability

>  <QUALITATIVE LABEL>
class 0

$$$$
>  <MOLECULE>
C#Cc1c(F)ccc2cc(O)cc(-c3ncc4c(N5CC6CCC(C5)N6)nc(OCC56CCCN5CC(F)C6)nc4c3F)c12 (stereo not given) + CN(C)c1ccc(Nc2c3ccc(NC(=O)CCN4CCCC4)cc3nc3cc(NC(=O)CCN4CCCC4)ccc23)cc1

>  <EXPERIMENTAL SYSTEM>
435261-313-R-J1-PDC complex spheroid viability

>  <QUALITATIVE LABEL>
class 1

$$$$
>  <MOLECULE>
CC1COCCN1c1cc(C2(S(C)(=N)=O)CC2)nc(-c2ccnc3[nH]ccc23)n1 (stereo not given) + Cc1[nH]c2ccc(F)cc2c1-c1nc2c3cccnc3c3ncccc3c2[nH]1

>  <EXPERIMENTAL SYSTEM>
435261-313-R-J1-PDC complex spheroid viability

>  <QUALITATIVE LABEL>
class 0

$$$$
>  <MOLECULE>
C=CC(=O)N1CCN(c2nc(=O)n(-c3c(C)ccnc3C(C)C)c3nc(-c4c(O)cccc4F)c(F)cc23)C(C)C1 (stereo not given) + Cc1cnc(CNC(=O)c2c(=O)c3ccc(N4CCCN(C)CC4)nc3n3c2sc2ccccc23)cn1

>  <EXPERIMENTAL SYSTEM>
435261-313-R-J1-PDC complex spheroid viability

>  <QUALITATIVE LABEL>
class 1

$$$$

Kindly review the next molecule as well.
INPUT: Identify whether the molecule COc1ccc([C@@H](O)c2cc(-c3ncnc4cc(N5CCOCC5)ccc34)c(F)cc2Cl)nn1 + Cc1cnc(CNC(=O)c2c(=O)c3ccc(N4CCCN(C)CC4)nc3n3c2sc2ccccc23)cn1 records viability, T/C below 80%.
OUTPUT: class 1

---

Test system: 435261-313-R-J1-PDC complex spheroid viability
Assay: Anticancer human tumor 435261-313-R-J1-PDC cell line growth inhibition [GQUAD];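 also: spheroids exposed to the agents for seven days before readout; percent of vehicle control viability with DMSO wells as 100%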
Conditions: second compound 0.1 µM; first compound 0.1 µM; stronger effect = lower value
ENDPOINT: viability, T/C (%)
# unit: % | format: bare number

>  <COMPOUND>
COc1ncnc(C2CC2)c1-c1ncc2cnn(Cc3ccc(-c4nc(C(F)(F)F)cn4C(C)C)cc3)c2n1 + CN(C)c1ccc(Nc2c3ccc(NC(=O)CCN4CCCC4)cc3nc3cc(NC(=O)CCN4CCCC4)ccc23)cc1

>  <RECORDED RESULT>
89.6

$$$$

INPUT: viability, T/C lookup needed for Nc1ccn(C2OC(CO)C(O)C2(F)F)c(=O)n1 (centres undefined) + Cc1cnc(CNC(=O)c2c(=O)c3ccc(N4CCCN(C)CC4)nc3n3c2sc2ccccc23)cn1 , thanks.
OUTPUT: 67.5

INPUT: viability, T/C lookup needed for C=CC(=O)N1CCN(c2nc(=O)n(-c3c(C)ccnc3C(C)C)c3nc(-c4c(O)cccc4F)c(F)cc23)C(C)C1 (centres undefined) + CN(C)c1ccc(Nc2c3ccc(NC(=O)CCN4CCCC4)cc3nc3cc(NC(=O)CCN4CCCC4)ccc23)cc1 , thanks.
OUTPUT: 109

INPUT: viability, T/C lookup needed for CC(=O)O[C@H]1C(=O)[C@@]2(C)[C@H]([C@H](OC(=O)c3ccccc3)[C@]3(O)C[C@H](OC(=O)[C@H](O)[C@@H](NC(=O)c4ccccc4)c4ccccc4)C(C)=C1C3(C)C)[C@]1(OC(C)=O)CO[C@@H]1C[C@@H]2O + Cc1cnc(CNC(=O)c2c(=O)c3ccc(N4CCCN(C)CC4)nc3n3c2sc2ccccc23)cn1 , thanks.
OUTPUT: 54
